target: T1, C-Raf-RBD (50-134), purified (human, UniProt P04049 50-134); assay: fluorescence polarisation; competitive: non-labeled peptides 3-fold diluted, added to a complex of F-L5UR and RBD (methods: 5 nM and 200 nM; legend of Fig. 2e: 10 nM and 15 µM GST-B-RBD); 30 min at ~22 °C; four-parameter fit; settings: both partners purified
T1 construct: also called C-RBD; source: E. coli, purified (glutathione agarose)
property.measured: IC50 (µM)

>>> val("L5UR peptide, non-labeled (peptide, UniProt P15814 38-89, looked up, 52-mer L5UR: residues 38-89 of the unique region of the λ5-chain (λ5-UR) of the pre-B-cell receptor; also called full-length peptide of L5UR; source: synthetic peptide; bought: Pepmic Co., China) peptide: LLRPTAASQSRALGPGAPGGSSRSSLRSRWGRFLLQRGSWTGPRCWPRGFQS")
4
